System: Mus musculus
Assay: Activity in sc dosed mouse by hypothermia test
Type: functional
Observation type: ED50 (mg/kg)

- Compound: "Cl.Clc1ccc([C@H]2CC3CCC2N3)cn1 (some centres undefined) [EPIBATIDINE HYDROCHLORIDE]"
  Scale unit: "mg/kg"
  Reported: 0.004
- Compound: "Cl.N[C@@H]1C2CCC1[C@@H](c1ccc(Cl)nc1)C2 (relative stereo)"
  Scale unit: "mg/kg"
  Reported: 2.3
- Compound: "CN1CCC[C@H]1c1cccnc1.Cl [NICOTINE HYDROCHLORIDE]"
  Scale unit: "mg/kg"
  Reported: 1
- Compound: "Cl.Cl.Cl.N[C@H]1C2CCC1[C@@H](c1ccc(Cl)nc1)C2 (relative stereo)"
  Scale unit: "mg/kg"
  Reported: 3.4
